The origin of these recorded values is patent US20260325654A1.

Exercise: for every item that follows, state its recorded Dmax.
# Target Entity: KRAS(G12V) (Homo sapiens, UniProt P01116, G12V)
# Construct: anti-KRAS Western blot degradation by PROTACs recruiting CRBN or VHL
# Sequence (P01116 1-188 isoform P01116-2 G12V): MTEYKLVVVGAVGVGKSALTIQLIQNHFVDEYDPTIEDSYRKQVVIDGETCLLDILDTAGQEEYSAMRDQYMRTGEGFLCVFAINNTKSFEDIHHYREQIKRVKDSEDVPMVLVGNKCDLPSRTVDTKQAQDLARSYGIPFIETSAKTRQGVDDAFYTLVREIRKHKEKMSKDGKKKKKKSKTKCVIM
# Test: KRAS Western Blot Protein Degradation Assay, NCIH727
# Type: cell-based
# Condition Set: NCI-H727, 24 hr, read-out: WB data NCIH727 DMax
# Procedure: […] Cell lines SW1990 and GP2D that express KRAS(G12D), LU65A that expresses KRAS(G12C), and NCIH727 that expresses KRAS(G12V) were seeded in 6- or 12-well tissue culture plates, and after 1 hr, test compounds were added at various concentrations and incubated at 37° C./5% CO2 for 24 hr. […] After centrifugation, the total protein concentrations of cell lysates were determined using the BCA protein assay. […] Fluorescence imaging and quantitation was performed using a LI-COR Odyssey. […]

Compound	Measured Endpoint	Reported Measurement
C#Cc1c(F)ccc2cc(O)cc(-c3ncc4c(N5CCN(C(=O)CC#N)[C@@H](CC#N)C5)nc(OCC5(CN6CCN(CC7CCN(c8ccc9c(c8)CN(C8CCC(=O)NC8=O)C9=O)CC7)CC6)CC5)nc4c3F)c12 (some centres unmarked)	Dmax	> 50%

Now, please, on to the next compound.
Prompt: What measured Dmax goes with C#Cc1c(F)ccc2cc(O)cc(-c3ncc4c(N5CC6CCC(C5)N6C(=O)C(C)C#N)nc(OCC5(CN6CCN(CC7CCN(c8ccc9c(c8)CN(C8CCC(=O)NC8=O)C9=O)CC7)CC6)CC5)nc4c3F)c12 (centres unmarked) ?
Completion: > 50%
